We begin with a simple list: items and their reported binding signal.
target: dAsCas12a K548R (Acidaminococcus sp., UniProt U2UMQ6 1-1307, K548R;D908A;E993A;D1235A); assay: Spec-seq (native PAGE EMSA with sequencing of bound and unbound); 25 mM Tris-HCl pH 7.4, 150 mM KCl, 5 mM MgCl2, 10% glycerol, 1 mM DTT, 40 ng/uL salmon sperm DNA; 400 nM Cas12a, 480 nM crRNA, 50 nM library, 37 C 1 h; native PAGE at room temperature; high values mean tight binding; details: protein: recombinant
State the result as a value with its unit after it.

Can you look up the measured binding signal of TTCT (dsDNA) DNA 1: GCTATCTAGTGCTCAGTACGCACTGTTCTAGGAAACTTCTGGCAGGACCAGGTCATGAGATCGGAAGAGCACACGTCTGAACTCCAGTCA DNA 2: TGACTGGAGTTCAGACGTGTGCTCTTCCGATCTCATGACCTGGTCCTGCCAGAAGTTTCCTAGAACAGTGCGTACTGAGCACTAGATAGC RNA: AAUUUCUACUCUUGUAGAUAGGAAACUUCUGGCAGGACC for me?
-8.32 lnKA

Can you look up the measured binding signal of GTTG (dsDNA) DNA 1: GCTATCTAGTGCTCAGTACGCACTGGTTGAGGAAACTTCTGGCAGGACCAGGTCATGAGATCGGAAGAGCACACGTCTGAACTCCAGTCA DNA 2: TGACTGGAGTTCAGACGTGTGCTCTTCCGATCTCATGACCTGGTCCTGCCAGAAGTTTCCTCAACCAGTGCGTACTGAGCACTAGATAGC RNA: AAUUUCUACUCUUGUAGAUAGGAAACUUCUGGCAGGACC for me?
-6.8 lnKA

Can you look up the measured binding signal of AGTC (dsDNA) DNA 1: GCTATCTAGTGCTCAGTACGCACTGAGTCAGGAAACTTCTGGCAGGACCAGGTCATGAGATCGGAAGAGCACACGTCTGAACTCCAGTCA DNA 2: TGACTGGAGTTCAGACGTGTGCTCTTCCGATCTCATGACCTGGTCCTGCCAGAAGTTTCCTGACTCAGTGCGTACTGAGCACTAGATAGC RNA: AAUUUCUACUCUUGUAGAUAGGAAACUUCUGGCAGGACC for me?
-7.9 lnKA
